B1: Osa-1-4 twister ribozyme (parent)
chain: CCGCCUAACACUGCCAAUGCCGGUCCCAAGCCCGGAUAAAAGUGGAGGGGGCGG

- Variants of: B1
- method: self-cleavage, relative activity (ratio to wild type); higher = more cleavage; co-transcriptional
Rule: self-cleavage under 0.1 gives false, otherwise true.

Field: example entries. Status: answers known.
# variant_identifier, category
data = [
    ("C25A G49U", "true"),
    ("C32G G49U", "false"),
    ("C21A C31G", "false"),
]

Exam item: decide whether the reported self-cleavage for A38U C20U is at least 0.1.
true

Confirm if self-cleavage reported for the variant G49U U18A is 0.1 or above.
true

Hi, just wondering whether A7C G34U shows self-cleavage of 0.1 or higher.
false

Answer whether self-cleavage of C15G C20U is greater than or equal to 0.1.
true

Please check the record G50A U18A and state if its self-cleavage is at or above 0.1.
true

Form field: self-cleavage at least 0.1? Entry: A39G G22C
false

Form field: self-cleavage at least 0.1? Entry: C25A G50A
true
